System: luciferase reporter gene under control of methylated CMV promoter in KG-1 cells
TEST DESCRIPTION: CMV-luc reexpression in KG-1 cells
Type: cell-based, human
CONDITION CONTEXT: 0.1 μM, 24 h, vs DMSO
READOUT TYPE: Induction Fold (IF) of luciferase gene reporter in KG-1 CMV-Luc

[[record]]
compound_smiles = "CNC(=O)N1CCc2cc(OC)c3c4c2[C@@H]1Cc1ccc(cc1)Oc1cc(ccc1OC)C[C@H]1c2cc(c(cc2CCN1C)O3)O4"
observed_result = 1.1

[[record]]
compound_smiles = "CCN(CC)CCCNC(=S)N1CCc2cc3c4cc2[C@@H]1Cc1ccc(OC)c(c1)Oc1ccc(cc1)C[C@H]1c2c(cc(OC)c(c2O4)O3)CCN1C(=S)NCCCN(CC)CC"
observed_result = 1.1

[[record]]
compound_smiles = "CCN(CC)CCCNC(=S)N1CCc2cc3c4cc2[C@@H]1Cc1ccc(OC)c(c1)Oc1ccc(cc1)C[C@H]1c2c(cc(OC)c(c2O4)O3)CCN1C"
observed_result = 1.2

[[record]]
compound_smiles = "COc1ccc2cc1Oc1ccc(cc1)C[C@@H]1NCCc3cc(OC)c4c(c31)Oc1cc3c(cc1O4)CCN(C)[C@H]3C2"
observed_result = 1.1

[[record]]
compound_smiles = "CCN(CC)CCCNC(=O)N1CCc2cc3c4cc2[C@@H]1Cc1ccc(OC)c(c1)Oc1ccc(cc1)C[C@H]1c2c(cc(OC)c(c2O4)O3)CCN1C(=O)NCCCN(CC)CC"
observed_result = 1.1


----------
Tested on: luciferase reporter gene under control of methylated CMV promoter in KG-1 cells
TEST DESCRIPTION: CMV-luc reexpression in KG-1 cells
Assay type: cell-based, human
CONDITION CONTEXT: 1 μM, 24 h, vs DMSO
READOUT TYPE: Induction Fold (IF) of luciferase gene reporter in KG-1 CMV-Luc

[[record]]
compound = "CCN(CC)CCCNC(=S)N1CCc2cc3c4cc2[C@@H]1Cc1ccc(OC)c(c1)Oc1ccc(cc1)C[C@H]1c2c(cc(OC)c(c2O4)O3)CCN1C [Product 42]"
observed_result = 1.5

[[record]]
compound = "CCN(CC)CCCNC(=S)N1CCc2cc3c4cc2[C@@H]1Cc1ccc(OC)c(c1)Oc1ccc(cc1)C[C@H]1c2c(cc(OC)c(c2O4)O3)CCN1C(=S)NCCCN(CC)CC [Product 41]"
observed_result = 1.3

[[record]]
compound = "CCN(CC)CCCNC(=O)N1CCc2cc3c4cc2[C@@H]1Cc1ccc(OC)c(c1)Oc1ccc(cc1)C[C@H]1c2c(cc(OC)c(c2O4)O3)CCN1C(=O)NCCCN(CC)CC [Product 48]"
observed_result = 1.2

[[record]]
compound = "CNC(=O)N1CCc2cc(OC)c3c4c2[C@@H]1Cc1ccc(cc1)Oc1cc(ccc1OC)C[C@H]1c2cc(c(cc2CCN1C)O3)O4 [Product 44]"
observed_result = 1.3

[[record]]
compound = "COc1ccc2cc1Oc1ccc(cc1)C[C@@H]1NCCc3cc(OC)c4c(c31)Oc1cc3c(cc1O4)CCN(C)[C@H]3C2 [Trilobine (1), trilobine]"
observed_result = 2.6


----------
Test system: WM266-4 (melanoma)
TEST DESCRIPTION: Anti-proliferative activity (ATPLite)
Format: cell-based
CONDITION CONTEXT: Homo sapiens, WM 266-4; two treatments instead of three; cell viability by ATPLite; read-out: Antiproliferative activity: IC50 (μM) WM266-4 (melanoma)
READOUT TYPE: IC50 (µM)

[[record]]
compound_smiles = "COc1ccc2cc1Oc1ccc(cc1)C[C@@H]1NCCc3cc(OC)c4c(c31)Oc1cc3c(cc1O4)CCN(C)[C@H]3C2"
readout_type = "IC50"
observed_result = 3.2

[[record]]
compound_smiles = "CCN(CC)CCCNC(=S)N1CCc2cc3c4cc2[C@@H]1Cc1ccc(OC)c(c1)Oc1ccc(cc1)C[C@H]1c2c(cc(OC)c(c2O4)O3)CCN1C(=S)NCCCN(CC)CC"
readout_type = "IC50"
observed_result = 4.4

[[record]]
compound_smiles = "CNC(=O)N1CCc2cc(OC)c3c4c2[C@@H]1Cc1ccc(cc1)Oc1cc(ccc1OC)C[C@H]1c2cc(c(cc2CCN1C)O3)O4"
readout_type = "IC50"
observed_result = 12


Where these numbers come from: patent US10544156B2
